Numbers sourced from paper PMC7354218.

The following compounds are listed with their measured Km values.
- Tested on: NpsA
- Assay type: biochemical, Klebsiella oxytoca
- condition.description: read-out: KM (apparent); pH 8

{"columns": ["compound", "Km [µM]"],
 "data": [
  ["Nc1ncnc2c1ncn2[C@@H]1O[C@H](COP(=O)(O)OP(=O)(O)OP(=O)(O)O)[C@@H](O)[C@H]1O [ATP, adenosine triphosphate]", 15],
  ["O=C(O)c1cccc(O)c1 [3-Hydroxybenzoic acid]", 4000],
  ["Nc1ccccc1C(=O)O", 850],
  ["Nc1c(O)cccc1C(=O)O [3-Hydroxyanthranilic acid]", 63]
]}

---

Reported pKd is given for each of the following compounds.
- target.under.test: NpsA (wt-NpsA) (Klebsiella oxytoca)
pKd: −log10 of the molar value.
observation.type: pKd

{"columns": ["compound", "observation.type", "observed.result"],
 "data": [
  ["Nc1ccccc1C(=O)NS(=O)(=O)NC[C@H]1O[C@@H](n2cnc3c(N)ncnc32)[C@H](O)[C@@H]1O [compound 9]", "pKd", 6.31],
  ["Nc1c(O)cccc1C(=O)NS(=O)(=O)NC[C@H]1O[C@@H](n2cnc3c(N)ncnc32)[C@H](O)[C@@H]1O [compound 5]", "pKd", 7.53],
  ["Nc1ncnc2c1ncn2[C@@H]1O[C@H](CNS(=O)(=O)NC(=O)c2cccc(O)c2)[C@@H](O)[C@H]1O [compound 8]", "pKd", 6.95]
]}

---

- target.under.test: NpsA (wt-NpsA) (Klebsiella oxytoca, UniProt A0A291NW45)
- Sequence (A0A291NW45 1-506): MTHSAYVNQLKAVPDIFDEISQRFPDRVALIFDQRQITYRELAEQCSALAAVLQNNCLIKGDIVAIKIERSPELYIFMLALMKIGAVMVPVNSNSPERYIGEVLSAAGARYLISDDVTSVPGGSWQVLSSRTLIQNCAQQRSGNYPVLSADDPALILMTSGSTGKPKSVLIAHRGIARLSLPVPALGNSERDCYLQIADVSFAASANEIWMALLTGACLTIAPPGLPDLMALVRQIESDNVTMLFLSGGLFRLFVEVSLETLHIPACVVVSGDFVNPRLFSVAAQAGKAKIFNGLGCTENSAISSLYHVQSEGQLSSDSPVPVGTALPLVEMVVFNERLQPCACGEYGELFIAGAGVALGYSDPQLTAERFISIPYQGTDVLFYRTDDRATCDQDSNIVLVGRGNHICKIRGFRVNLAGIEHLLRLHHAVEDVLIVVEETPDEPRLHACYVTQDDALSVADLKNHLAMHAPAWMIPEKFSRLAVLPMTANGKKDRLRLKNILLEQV
- Sequence (A0A291NW67 1-76 partner): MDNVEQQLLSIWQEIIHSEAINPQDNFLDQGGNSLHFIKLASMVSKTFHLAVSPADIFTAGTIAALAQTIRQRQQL
Ki values by entry
observation.type: Ki (nM)

{"columns": ["chem.smiles", "observation.type", "observed.result"],
 "data": [
  ["Nc1ccccc1C(=O)NS(=O)(=O)NC[C@H]1O[C@@H](n2cnc3c(N)ncnc32)[C@H](O)[C@@H]1O", "Ki", 1200],
  ["Nc1ncnc2c1ncn2[C@@H]1O[C@H](CNS(=O)(=O)NC(=O)c2cccc(O)c2)[C@@H](O)[C@H]1O", "Ki", 230],
  ["Nc1c(O)cccc1C(=O)NS(=O)(=O)NC[C@H]1O[C@@H](n2cnc3c(N)ncnc32)[C@H](O)[C@@H]1O", "Ki", 54]
]}
